Listed here are molecules together with their documented Potency.
Assay explanation: Primary qHTS for inhibitors of nuclear receptor binding SET domain protein 2 (NSD2) in an isogenic RCH-ACV NSD2 p.E1099K mutant (9B) (AID 1645876); also: potency is read from the fitted curve at half-maximal effect; nearly all actives have a fitted effect of over 70% in size
Measurement parameters: RCH-ACV (leukaemia line) NSD2 E1099K (9B) viability, CellTiter-Glo, 72 h; series mostly up to 44.9 µM
Results filed as inconclusive are left out. Calls of active or inactive are those of the source. Calls follow the shape of the dose curve; as a rule, active = well fitted inhibition curve with a large enough effect; inconclusive = small, poorly fitted or top-dose-only effect; inactive = flat fitted curve, though single readings scatter.

Sample answers from the record:
| Molecule | Measured parameter | Observed measurement |
| --- | --- | --- |
| c1ccc2c(-c3cnn4cc(-c5ccc(OCCN6CCOCC6)cc5)cnc34)ccnc2c1 | Potency | 3.62 µM (active) |
| Cc1c(O)cccc1C(=O)NC(CSc1ccccc1)C(O)CN1CC2CCCCC2CC1C(=O)NC(C)(C)C (stereo not given) | Potency | 23.5 µM (active) |
| O=C1Nc2ccccc2/C1=C/c1cc(O)ccc1O | Potency | 16.4 µM (active) |
| N#Cc1cccnc1N1CCN(C(=O)c2cccc(Cc3n[nH]c(=O)c4ccccc34)c2)CC1 | Potency | 0.0332 µM (active) |

// switching to the query molecule
Asked: Potency for Cc1noc(C)c1-c1ccc(-c2cc(C(N)=O)c(NC(N)=O)s2)c(O[C@H]2CCNC2)c1 ?
Given back: 16.6 µM (active)
